Values compiled from paper PMC8159961.

# ASSAYED_TARGET: human thrombin (Homo sapiens, UniProt P00734)
# Construct: human thrombin; purchased Sigma-Aldrich
# ASSAY_PROTOCOL: Protease inhibitory assay, chromogenic substrate S-2238
# Format: biochemical
# CONDITIONS: Thrombin primary screening; substrate 40 µM; cmpd conc 500 µM
PROPERTY_MEASURED: V0 / Vi
Answer with a number only.

1. Oc1ccc(-n2cncn2)cc1
1.00

Q. Data request, read-out V0 / Vi, for FC1(F)CNCC(F)(F)O1
A. 0.99

Q. What would you report for c1ccc(-c2ccncc2)cc1 ?
A. 0.98

Q. What would you report for O=C1NC2(CCCC2)Nc2ccccc21 ?
A. 1.01

Q. What would you report for Brc1ccc(-c2ccon2)cc1 ?
A. 0.98

Q. What would you report for Nc1nnc2ccccn12 ?
A. 0.99

Q. What would you report for CC(CN)N1CCc2sccc2C1 (stereo not shown) ?
A. 1.01

* * *

Overview of recorded %inh 5-HT6 exp_2 for various compounds
# ASSAYED_TARGET: human 5-HT6 receptor (Homo sapiens)
# Construct: expressed in transfected cells
# Sequence (P50406 whole entry): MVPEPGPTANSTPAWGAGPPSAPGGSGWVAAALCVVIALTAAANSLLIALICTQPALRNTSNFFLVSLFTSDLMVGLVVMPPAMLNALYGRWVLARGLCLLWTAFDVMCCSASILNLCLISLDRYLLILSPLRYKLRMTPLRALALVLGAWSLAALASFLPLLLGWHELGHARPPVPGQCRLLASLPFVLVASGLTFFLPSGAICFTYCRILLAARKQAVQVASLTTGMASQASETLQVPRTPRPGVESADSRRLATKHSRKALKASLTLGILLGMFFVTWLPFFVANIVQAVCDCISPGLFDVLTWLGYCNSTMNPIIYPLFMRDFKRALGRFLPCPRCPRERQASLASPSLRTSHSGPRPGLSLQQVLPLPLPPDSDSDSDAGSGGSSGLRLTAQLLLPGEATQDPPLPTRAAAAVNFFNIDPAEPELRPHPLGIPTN
# ASSAY_PROTOCOL: GPCR radioligand binding assay, [3H]-LSD displacement, HEK293 membranes
# CONDITIONS: 5-HT6; replicate exp_2
Field: numeric (%). Do not append units.

1. Nc1ccc(-c2ccccc2)cc1C(=O)O
40
2. CN1CC(=O)NC1=O
40

Query compound follows.
Q. Data request, read-out %inh 5-HT6 exp_2, for O=c1[nH]c2c(s1)CCC2
A. 39

* * *

Overview of recorded Ki for various molecules
# ASSAYED_TARGET: human thrombin (Homo sapiens, UniProt P00734)
# Construct: human thrombin; purchased Sigma-Aldrich
# ASSAY_PROTOCOL: Protease inhibitory assay, chromogenic substrate S-2238
# Assay type: biochemical
# CONDITIONS: plate layout, label = plate position; Cheng-Prusoff, Km 2.6 µM; read-out: Thrombin Ki
Field: numeric (µM). Do not append units.

1. O=C(O)c1cnc(-c2ccccc2)s1
271
2. Nc1nnc(-c2cccs2)[nH]1
181
3. c1cnc2cccnc2c1
163
4. NC(=O)N1CCC(C(=O)O)CC1
301

Query molecule follows.
Q. Data request, read-out Ki, for CC1CCc2sc(C(=O)O)cc2C1 (centres unmarked)
A. 65

* * *

# ASSAYED_TARGET: human thrombin (Homo sapiens)
# Construct: human thrombin; purchased Sigma-Aldrich
# ASSAY_PROTOCOL: Protease inhibitory assay, chromogenic substrate S-2238
# Assay type: biochemical
# CONDITIONS: Thrombin primary screening; substrate 40 µM; cmpd conc 500 µM
Overview of recorded V0 / Vi for various compounds
Answer with a number only.

1. NC1CCc2ccccc21 (centres unmarked) [SX-B4]
0.96
2. O=C(c1ccccc1)N1CCC(CO)CC1 [SX-H9]
1.03
3. N#CCCN1CCc2ccccc21 [SX-F4]
1.01
4. c1ccc2c(N3CCNCC3)ccnc2c1 [SX-C4]
1.01
5. COc1ccc(C2=CCNCC2)cc1 [SX-G1]
1.03
6. O=C1CCN(c2ccncc2)CC1 [SX-G7]
0.90

Q. Data request, read-out V0 / Vi, for Cn1c(CO)nc2ccccc21 [SX-G2]
A. 1.00

Q. What would you report for Clc1ccc2nnnn2n1 [SX-E6] ?
A. 0.99

Q. What would you report for c1cnc2cccnc2c1 [SX-A2] ?
A. 1.13

Q. What would you report for O=C1CNCCN1c1ccccc1 [SX-B2] ?
A. 1.05

Q. What would you report for N#Cc1ccc(C(=O)N2CCOCC2)cc1 [SX-E10] ?
A. 1.00
